Target: human cannabinoid CB2 receptor (Homo sapiens, UniProt P34972)
Sequence (P34972 whole entry): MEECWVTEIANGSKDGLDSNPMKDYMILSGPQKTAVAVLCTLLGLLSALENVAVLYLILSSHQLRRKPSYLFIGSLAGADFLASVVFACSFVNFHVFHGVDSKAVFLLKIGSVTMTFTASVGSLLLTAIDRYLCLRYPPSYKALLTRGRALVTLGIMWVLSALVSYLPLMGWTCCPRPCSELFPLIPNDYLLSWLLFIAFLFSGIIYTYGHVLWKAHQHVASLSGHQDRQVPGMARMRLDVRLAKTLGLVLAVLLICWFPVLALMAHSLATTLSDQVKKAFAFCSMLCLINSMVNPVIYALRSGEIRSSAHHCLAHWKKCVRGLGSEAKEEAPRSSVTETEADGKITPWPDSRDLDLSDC
Experiment: Cannabinoid CB2 receptor agonist activity (yeast reporter assay, FDGlu fluorescence)
Type: cell-based
Conditions: EC50 value at the cloned human cannabinoid CB2 receptor
Parameter EC50: see the listing below.
experimental.endpoint: EC50

compound.structure.string: O=C(c1cnc(Nc2ccc(Cl)c(Cl)c2)nc1C(F)(F)F)N1CCOCC1
measured.result: 20 to 300 nM
//
compound.structure.string: COc1cc(Nc2ncc(C(=O)NCC3CCOCC3)c(C(F)(F)F)n2)ccc1Cl
measured.result: 20 to 300 nM
//
compound.structure.string: O=C(NCC1CCC1)c1cnc(Nc2c(Cl)cccc2Cl)nc1C(F)(F)F
measured.result: 20 to 300 nM
//
compound.structure.string: CCN(Cc1ccccc1)C(=O)c1cnc(Nc2cccc(Cl)c2)nc1C(F)(F)F
measured.result: 300 to 1000 nM
//
compound.structure.string: O=C(NCC1CCOCC1)c1cnc(Nc2cc(F)cc(F)c2)nc1C(F)(F)F
measured.result: 20 to 300 nM
//
compound.structure.string: N#Cc1ccc(Nc2ncc(C(=O)NCC3CCOCC3)c(C(F)(F)F)n2)c(Cl)c1
measured.result: 20 to 300 nM
//
compound.structure.string: N#Cc1ccc(Nc2ncc(C(=O)NCC3CCOCC3)c(C(F)(F)F)n2)cc1Cl
measured.result: 20 to 300 nM
//
compound.structure.string: Cc1cc(Nc2ncc(C(=O)NCC3CCOCC3)c(C(F)(F)F)n2)ccc1Cl
measured.result: 20 to 300 nM
//
compound.structure.string: O=C(NCC1CCOCC1)c1cnc(Nc2ccc(Cl)cc2C(F)(F)F)nc1C(F)(F)F
measured.result: 300 to 1000 nM
//
compound.structure.string: O=C(NCc1ccncc1)c1cnc(Nc2cccc(Cl)c2Cl)nc1C(F)(F)F
measured.result: 20 to 300 nM
//
compound.structure.string: O=C(NCC1CC1)c1cnc(Nc2cccc(Cl)c2)nc1C(F)(F)F
measured.result: 300 to 1000 nM
//
compound.structure.string: O=C(NCC1CCCC1)c1cnc(Nc2cccc(Cl)c2Cl)nc1C(F)(F)F
measured.result: 20 to 300 nM
//
compound.structure.string: O=C(c1cnc(Nc2ccc(Cl)cc2Cl)nc1C(F)(F)F)N1CCOCC1
measured.result: 20 to 300 nM
//
compound.structure.string: O=C(NCc1ccncc1)c1cnc(Nc2cc(Cl)cc(Cl)c2)nc1C(F)(F)F
measured.result: 20 to 300 nM
//
compound.structure.string: O=C(NCC1CCOCC1)c1cnc(Nc2cccc(F)c2)nc1C(F)(F)F
measured.result: 20 to 300 nM
//
compound.structure.string: O=C(NCC1CCC1)c1cnc(Nc2cc(Cl)ccc2Cl)nc1C(F)(F)F
measured.result: 20 to 300 nM
//
compound.structure.string: O=C(NCC1CCCC1)c1cnc(Nc2cccc(Br)c2)nc1C(F)(F)F
measured.result: 20 to 300 nM
//
compound.structure.string: O=C(NCC1CCC1)c1cnc(Nc2cc(F)cc(C(F)(F)F)c2)nc1C(F)(F)F
measured.result: 300 to 1000 nM
//
compound.structure.string: O=C(c1cnc(Nc2cccc(Cl)c2)nc1C(F)(F)F)N1CCCCC1
measured.result: 20 to 300 nM
//
compound.structure.string: O=C(NCC1CCCC1)c1cnc(Nc2cc(Cl)cc(Cl)c2)nc1C(F)(F)F
measured.result: 20 to 300 nM
//
compound.structure.string: O=C(NCC1CCCCC1)c1cnc(Nc2ccc(F)cc2Cl)nc1C(F)(F)F
measured.result: 20 to 300 nM
//
compound.structure.string: O=C(NCC1CCCCC1)c1cnc(Nc2ccc(Cl)cc2Br)nc1C(F)(F)F
measured.result: 20 to 300 nM
//
compound.structure.string: O=C(NCc1ccc(F)cc1)c1cnc(Nc2ccc(C(F)(F)F)c(F)c2)nc1C(F)(F)F
measured.result: 20 to 300 nM
//
compound.structure.string: CN(Cc1ccccc1)C(=O)c1cnc(Nc2c(Cl)cccc2Cl)nc1C(F)(F)F
measured.result: 20 to 300 nM
//
compound.structure.string: O=C(NC1CC1)c1cnc(Nc2cccc(Cl)c2)nc1C(F)(F)F
measured.result: 20 to 300 nM
//
compound.structure.string: O=C(c1cnc(Nc2cccc(Br)c2)nc1C(F)(F)F)N1CCOCC1
measured.result: 20 to 300 nM
//
compound.structure.string: O=C(c1cnc(Nc2cccc(Cl)c2Cl)nc1C(F)(F)F)N1CCOCC1
measured.result: 20 to 300 nM
//
compound.structure.string: O=C(NC[C@H]1CCCO1)c1cnc(Nc2cccc(Br)c2)nc1C(F)(F)F
measured.result: 300 to 1000 nM
//
compound.structure.string: COc1cc(Nc2ncc(C(=O)NCC3CCCCC3)c(C(F)(F)F)n2)ccc1Cl
measured.result: 20 to 300 nM
//
compound.structure.string: O=C(NCC1CCOCC1)c1cnc(Nc2ccc(F)c(Cl)c2)nc1C(F)(F)F
measured.result: 20 to 300 nM
//
compound.structure.string: O=C(NCC1(O)CCCCC1)c1cnc(Nc2cccc(Cl)c2)nc1C(F)(F)F
measured.result: 20 to 300 nM
//
compound.structure.string: CC(C)Cc1ccc(CNC(=O)c2cnc(Nc3cccc(Cl)c3)nc2C(F)(F)F)cc1
measured.result: 300 to 1000 nM
//
compound.structure.string: O=C(NCC1CCOCC1)c1cnc(Nc2cc(Cl)cc(Cl)c2)nc1C(F)(F)F
measured.result: 20 to 300 nM
//
compound.structure.string: CN(CC1CCOCC1)C(=O)c1cnc(Nc2cccc(Cl)c2)nc1C(F)(F)F
measured.result: 20 to 300 nM
//
compound.structure.string: O=C(NCC1CCOCC1)c1cnc(Nc2ccc(F)cc2F)nc1C(F)(F)F
measured.result: 300 to 1000 nM
